Kbb overview
assay: Blood-brain partition ratio in Wistar Han rat at 5 uM incubated for 4 hrs by dialysis and LC-MS/MS method; format: ADME, tissue-based; settings: in vitro
readout_label: Kbb

> print(dat)
                        structure.as.smiles  observed.measurement
1  Nc1nc(N2CCN(CCc3cccc4c3CC(=O)N4)CC2)nc2nc(-c3ccco3)nn12                  1.07
2  CCCN(CCCNc1nc(Oc2ccc(CCNc3nc(N)n4nc(-c5ccco5)nc4n3)cc2)nc(N2CCOCC2)n1)CCc1cccc2c1CC(=O)N2.O=CO                  3.64
3  Nc1nc(NCCc2ccc(O)cc2)nc2nc(-c3ccco3)nn12                  0.76
4  CCCN(CCCNc1nc(N)n2nc(-c3ccco3)nc2n1)CCc1cccc2c1CC(=O)N2                  1.29

---

assay: Fraction unbound in Wistar Han rat brain at 5 uM incubated for 4 hrs by dialysis and LC-MS/MS method; format: ADME, tissue-based
readout_label: fraction unbound at 4 h, 5 µM

> print(dat)
                        structure.as.smiles                  readout.label  observed.measurement
1  Nc1nc(NCCc2ccc(O)cc2)nc2nc(-c3ccco3)nn12  fraction unbound at 4 h, 5 µM                0.0849
2  CCCN(CCCNc1nc(N)n2nc(-c3ccco3)nc2n1)CCc1cccc2c1CC(=O)N2  fraction unbound at 4 h, 5 µM                 0.153
3  CCCN(CCCNc1nc(Oc2ccc(CCNc3nc(N)n4nc(-c5ccco5)nc4n3)cc2)nc(N2CCOCC2)n1)CCc1cccc2c1CC(=O)N2.O=CO  fraction unbound at 4 h, 5 µM                0.0061
4  Nc1nc(N2CCN(CCc3cccc4c3CC(=O)N4)CC2)nc2nc(-c3ccco3)nn12  fraction unbound at 4 h, 5 µM                0.0563

---

target: D(2) dopamine receptor (Homo sapiens); experiment: Agonist activity at human dopamine D2L receptor expressed in CHO cell membranes incubated for 1 hr by [35S]GTPgammaS binding assay relative to 100 uM quinelorane; type: functional
Sequence (P14416 whole entry): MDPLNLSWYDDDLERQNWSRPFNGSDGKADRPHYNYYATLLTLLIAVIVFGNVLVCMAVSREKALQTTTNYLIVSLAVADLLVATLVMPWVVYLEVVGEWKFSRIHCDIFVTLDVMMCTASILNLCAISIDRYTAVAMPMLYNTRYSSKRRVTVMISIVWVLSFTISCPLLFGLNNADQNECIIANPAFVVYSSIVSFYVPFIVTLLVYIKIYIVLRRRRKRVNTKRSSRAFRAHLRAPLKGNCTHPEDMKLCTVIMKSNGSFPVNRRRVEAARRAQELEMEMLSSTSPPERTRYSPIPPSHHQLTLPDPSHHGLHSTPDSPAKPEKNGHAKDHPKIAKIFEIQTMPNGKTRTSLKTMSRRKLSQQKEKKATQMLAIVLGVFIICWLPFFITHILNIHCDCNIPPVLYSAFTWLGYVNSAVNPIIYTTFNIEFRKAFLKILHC
readout_label: Emax (%)

> print(dat)
                        structure.as.smiles  readout.label  observed.measurement
1  CCCN(CCCNc1nc(Oc2ccc(CCNc3nc(N)n4nc(-c5ccco5)nc4n3)cc2)nc(N2CCOCC2)n1)CCc1cccc2c1CC(=O)N2.O=CO           Emax                    65
2  CCCN(CCCNC(=O)CCCCCCCCCCCNC(=O)CCCOc1ccc(CCNc2nc(N)n3nc(-c4ccco4)nc3n2)cc1)CCc1cccc2c1CC(=O)N2           Emax                    38
3  CCCN(CCCNc1nc(N)n2nc(-c3ccco3)nc2n1)CCc1cccc2c1CC(=O)N2           Emax                    89
4  CN(CCCNc1nc(N)n2nc(-c3ccco3)nc2n1)CCc1cccc2c1CC(=O)N2           Emax                    77

---

experiment: Fraction unbound in Wistar Han rat blood at 5 uM incubated for 4 hrs by dialysis and LC-MS/MS method; type: ADME, tissue-based
Reported fraction unbound at 4 h, 5 µM values are given for each entry in this list.
readout_label: fraction unbound at 4 h, 5 µM

> print(dat)
                        structure.as.smiles                  readout.label  observed.measurement
1  Nc1nc(NCCc2ccc(O)cc2)nc2nc(-c3ccco3)nn12  fraction unbound at 4 h, 5 µM                0.0647
2  CCCN(CCCNc1nc(Oc2ccc(CCNc3nc(N)n4nc(-c5ccco5)nc4n3)cc2)nc(N2CCOCC2)n1)CCc1cccc2c1CC(=O)N2.O=CO  fraction unbound at 4 h, 5 µM                0.0222
3  CCCN(CCCNc1nc(N)n2nc(-c3ccco3)nc2n1)CCc1cccc2c1CC(=O)N2  fraction unbound at 4 h, 5 µM                 0.198
4  Nc1nc(N2CCN(CCc3cccc4c3CC(=O)N4)CC2)nc2nc(-c3ccco3)nn12  fraction unbound at 4 h, 5 µM                0.0605

# credit: ChEMBL document CHEMBL3392981
